Values were extracted from the supplement of paper PMC13380429.

- System: A549-ACE2 infected with SARS-CoV-2
- assayName: morphology score (similarity to uninfected cells); higher = more like uninfected cells
- conditionDescription: 0.3 µM; 24 h
The following compounds are listed with their measured morphology score values.
propertyLabel: morphology score

inputSmiles: CN(C)c1ccc(-c2nc3c(N4CCN(CC(=O)Nc5nccs5)CC4)c(Cl)cnc3[nH]2)cc1
propertyLabel: morphology score
readoutNumber: 0.26
//
inputSmiles: OC1=c2ccccc2=C(NC2CCCCC2)/C1=C\c1ccccc1
propertyLabel: morphology score
readoutNumber: 0.22
//
inputSmiles: CC(C)n1nc(C#Cc2ccccc2)c2c(N)ncnc21
propertyLabel: morphology score
readoutNumber: 0.34
//
inputSmiles: NC1(c2ccc(-c3nc4ccn5c(=O)[nH]nc5c4cc3-c3ccccc3)cc2)CCC1
propertyLabel: morphology score
readoutNumber: 0.27
//
inputSmiles: Cc1cccc(/C=N/Nc2cc(N3CCOCC3)n3nc(-c4ccncc4)cc3n2)c1
propertyLabel: morphology score
readoutNumber: 0.21

###

- Tested on: U2OS
- assayName: cell viability relative to DMSO; higher = less toxic
- conditionDescription: 72 h; 100 nM
The following compounds are listed with their measured cell viability values.
propertyLabel: cell viability (%)

compound: CC(C)(C)n1nc(-c2ccc(Cl)cc2)c2c(N)ncnc21
propertyLabel: cell viability
unitLabel: %
readoutNumber: 96.7
//
compound: CO[C@@]1(NC(=O)C(C(=O)O)c2ccc(O)cc2)C(=O)N2C(C(=O)O)=C(CSc3nnnn3C)CO[C@@H]21 (some centres undefined)
propertyLabel: cell viability
unitLabel: %
readoutNumber: 96.1
//
compound: COc1cc2nc(N3CCN(C(=O)c4ccco4)CC3)nc(N)c2cc1OC
propertyLabel: cell viability
unitLabel: %
readoutNumber: 99.5
//
compound: CC1=C(C(=O)OC(C)C)C(c2cccc([N+](=O)[O-])c2)C(C(=O)OC2CN(C(c3ccccc3)c3ccccc3)C2)=C(N)N1 (centres undefined)
propertyLabel: cell viability
unitLabel: %
readoutNumber: 98.3
//
compound: O=C(CCCN1CCC(O)(c2ccc(Cl)cc2)CC1)c1ccc(F)cc1
propertyLabel: cell viability
unitLabel: %
readoutNumber: 97.6
//
compound: CCN1CCCC(OC(=O)C(c2ccccc2)c2ccccc2)C1 (centres undefined) [piperidolate]
propertyLabel: cell viability
unitLabel: %
readoutNumber: 100
//
compound: O=P(O)(O)CN(CCN(CP(=O)(O)O)CP(=O)(O)O)CP(=O)(O)O
propertyLabel: cell viability
unitLabel: %
readoutNumber: 102
//
compound: N#Cc1ccc(N2CCN(C(=O)COc3ccc4[nH]cc(CCN)c4c3)CC2)cc1
propertyLabel: cell viability
unitLabel: %
readoutNumber: 99.4
//
compound: O=C1N=C2SCCN2C(=O)C1Cc1ccc(Cl)cc1 (centres undefined)
propertyLabel: cell viability
unitLabel: %
readoutNumber: 95.6

###

- System: Caco-2
- assayName: cell viability relative to DMSO; higher = less toxic
- conditionDescription: 72 h; 10000 nM
Please use T for cell viability under 90% and F for everything else, ties included.

compound: COc1ccc2[nH]c(I)c(CCNC(C)=O)c2c1
classAssignment: F
--
compound: N#CC1(c2ccc(NC(=O)c3cccnc3NCc3ccncc3)cc2)CCCC1
classAssignment: F
--
compound: O=C(O)Cc1ccc(OCc2ccccc2)c(Cl)c1
classAssignment: F
--
compound: COc1cc(N2CCC(N)CC2)ccc1Nc1ncc(Cl)c(-c2c[nH]c3ccccc23)n1
classAssignment: T
--
compound: CCCCCN(C)CCC(O)(P(=O)(O)O)P(=O)(O)O [ibandronate]
classAssignment: F
--
compound: CN(C)c1ccc(-c2nc3c(N4CCN(CC(=O)Nc5nccs5)CC4)c(Cl)cnc3[nH]2)cc1
classAssignment: F
--
compound: CCN[C@H]1C[C@H](C)S(=O)(=O)c2sc(S(N)(=O)=O)cc21 [dorzolamide]
classAssignment: F
--
compound: Cc1cc(N)c2ccccc2[n+]1CCCCCCCCCC[n+]1c(C)cc(N)c2ccccc21
classAssignment: T
--
compound: O=C(O)COc1ccc(OCCNC[C@H](O)COc2ccccc2)cc1
classAssignment: F

###

- Tested on: Vero E6
- assayName: drug sensitivity score (DSS) for viability; higher = more toxic; extreme values may be limits of the assay
- conditionDescription: 72 h
propertyLabel: drug sensitivity score

compound: COc1cc(N2CCC(N)CC2)ccc1Nc1ncc(Cl)c(-c2c[nH]c3ccccc23)n1 [AZD3463]
readoutNumber: 7.4

compound: NC1(c2ccc(-c3nc4ccn5c(=O)[nH]nc5c4cc3-c3ccccc3)cc2)CCC1 [MK-2206]
readoutNumber: 3.9

compound: Cn1ncc(Cl)c1-c1cc(C(=O)N[C@H](CN)Cc2ccc(F)c(F)c2)oc1Cl [uprosertib]
readoutNumber: 0.8

compound: NC(=O)c1noc([C@H](CCCC2CCCCC2)CC(=O)NO)n1
readoutNumber: 0

compound: O=C(Nc1cnc(Cl)nc1)c1ccc(F)c(F)c1
readoutNumber: 0

compound: CC(=O)CCCCn1c(=O)c2c(ncn2C)n(C)c1=O [pentoxifylline]
readoutNumber: 0

###

- Test system: A549-ACE2 infected with SARS-CoV-2
- assayName: cell count relative to DMSO; higher = less toxic
- conditionDescription: 30 µM; 24 h
Respond with Fulfilled for cell count values of 80% and above, Not fulfilled for values below.

compound: C[C@H](Oc1cc(-c2cnn(C3CCNCC3)c2)cnc1N)c1c(Cl)ccc(F)c1Cl [crizotinib-(S)]
classAssignment: Not fulfilled

compound: CN(C(=O)Cc1ccc(Cl)c(Cl)c1)[C@H](CN1CCCC1)c1ccccc1
classAssignment: Fulfilled

compound: Cc1ccc(-n2nc(C(C)(C)C)cc2NC(=O)Nc2ccc(OCCN3CCOCC3)c3ccccc23)cc1 [doramapimod]
classAssignment: Not fulfilled

compound: Cc1cccc(/C=N/Nc2cc(N3CCOCC3)n3nc(-c4ccncc4)cc3n2)c1 [APY0201]
classAssignment: Fulfilled

compound: CC(C)(C)c1ccc(C(=O)CCCN2CCC(OC(c3ccccc3)c3ccccc3)CC2)cc1 [ebastine]
classAssignment: Not fulfilled

compound: COc1cc2ncnc(Nc3cccc(Cl)c3)c2cc1OC [tyrphostin-AG-1478]
classAssignment: Not fulfilled

compound: CC(C)n1nc(C#Cc2ccccc2)c2c(N)ncnc21 [SPP86]
classAssignment: Fulfilled

compound: COc1ccc2nc3c(c(N)c2c1)CCCC3 [7-methoxytacrine]
classAssignment: Fulfilled

###

- System: HepG2
- assayName: drug sensitivity score (DSS) for viability; higher = more toxic; extreme values may be limits of the assay
- conditionDescription: 72 h

molecule: CC(C)c1c2cc(-c3ccnc(N[C@H]4CC[C@H](NC5CCOCC5)CC4)n3)ccc2nn1C
drug sensitivity score: 19.1
//
molecule: CCCCNc1ncc2c(-c3ccc(CN4CCN(C)CC4)cc3)cn([C@H]3CC[C@H](O)CC3)c2n1 [UNC2025]
drug sensitivity score: 10.5
//
molecule: Cc1nccn1CCC(C(N)=O)(c1ccccc1)c1ccccc1 [imidafenacin]
drug sensitivity score: 0
//
molecule: O[C@@H]1CO[C@H]2[C@@H]1OC[C@@H]2O [isosorbide]
drug sensitivity score: 0
//
molecule: Cc1cc(F)c(Nc2ncnc3cc(OCc4ccccc4)ccc23)cc1O
drug sensitivity score: 0.2
//
molecule: CC(C)(C)c1ccc(C(=O)CCCN2CCC(OC(c3ccccc3)c3ccccc3)CC2)cc1 [ebastine]
drug sensitivity score: 1.5
//
molecule: COc1cc2ncnc(Nc3ccc(F)c(Cl)c3)c2cc1OCCCN1CCOCC1 [gefitinib]
drug sensitivity score: 3.9
//
molecule: O=C(O)c1ccccc1S [o-mercapto-benzoic-acid]
drug sensitivity score: 0
//
molecule: C/C(=N\NC(=O)C(NC(=O)c1ccccc1)c1n[nH]c(=O)c2ccccc12)c1cccc(Br)c1 (centres undefined)
drug sensitivity score: 0

###

- Test system: U2OS
- assayName: drug sensitivity score (DSS) for viability; higher = more toxic; extreme values may be limits of the assay
- conditionDescription: 72 h

compound: O=C(Nc1cccc(Br)c1)c1cccc(S(=O)(=O)N2CCCCCC2)c1
drug sensitivity score: 0
//
compound: Cn1ncc(Cl)c1-c1cc(C(=O)N[C@H](CN)Cc2ccc(F)c(F)c2)oc1Cl
drug sensitivity score: 1.4
//
compound: N=C(N)Nc1ccc(Cl)cc1
drug sensitivity score: 0
//
compound: Cc1c(N)c(=O)n(-c2ccccc2)n1C
drug sensitivity score: 0
//
compound: CCn1cc(C(=O)O)c(=O)c2cnc(N3CCCC3)nc21
drug sensitivity score: 0
//
compound: CC(NCCc1ccc(O)cc1)C(O)c1ccc(O)cc1 (stereo unspecified)
drug sensitivity score: 0

###

- Test system: A549-ACE2
- assayName: drug-induced phospholipidosis relative to tamoxifen; higher = more phospholipidosis
- conditionDescription: 10 µM; 24 h
Respond with yes for drug-induced phospholipidosis values of 60% and above, no for values below.

inputSmiles: CC(=O)[O-].CC(=O)[O-].N.NC1CCCCC1.[Cl-].[Cl-].[Pt+4]
classAssignment: no

inputSmiles: CN(C(=O)Cc1ccc(Cl)c(Cl)c1)[C@H](CN1CCCC1)c1ccccc1
classAssignment: yes

inputSmiles: CC(C)n1nc(C#Cc2ccccc2)c2c(N)ncnc21
classAssignment: yes

inputSmiles: COc1cc2ncnc(Nc3cccc(Cl)c3)c2cc1OC
classAssignment: no

inputSmiles: COc1ccc(NC(=O)c2ccc(-c3ccc(-c4noc(C)n4)cc3C)cc2)cc1OCCN(C)C
classAssignment: no
